TGT: Beta-secretase 1 (Homo sapiens)
Sequence (P56817 whole entry): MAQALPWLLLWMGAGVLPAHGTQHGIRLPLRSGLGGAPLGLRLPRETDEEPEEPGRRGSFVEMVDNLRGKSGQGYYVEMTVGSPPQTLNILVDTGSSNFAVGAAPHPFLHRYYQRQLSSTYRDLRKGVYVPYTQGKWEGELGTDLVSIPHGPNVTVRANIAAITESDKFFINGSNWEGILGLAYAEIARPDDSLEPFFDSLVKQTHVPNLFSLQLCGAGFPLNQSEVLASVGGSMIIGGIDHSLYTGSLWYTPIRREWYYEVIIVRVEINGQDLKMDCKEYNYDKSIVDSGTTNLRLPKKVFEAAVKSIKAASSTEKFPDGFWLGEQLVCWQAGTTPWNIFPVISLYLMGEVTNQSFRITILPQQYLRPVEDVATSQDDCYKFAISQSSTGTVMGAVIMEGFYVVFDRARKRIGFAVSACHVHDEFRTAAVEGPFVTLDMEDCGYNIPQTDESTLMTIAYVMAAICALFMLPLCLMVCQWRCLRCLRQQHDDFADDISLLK
EXPERIMENT_NOTES: Inhibition of BACE1 in human H4 cells expressing human APP K595N/M596L double mutant assessed as decrease in amyloid beta 42 and amyloid beta 40 level after overnight incubation by ELISA method
Assay type: cell-based
Parameters: concentration or dose not given beside the values
RECORDED_CONDITIONS: concentration not given here
RECORDED_ENDPOINT: inhibition (%)
Number in %, nothing else.

Prompt line: Read off the recorded inhibition for "Fc1ccc2nc(-c3cccc(-c4cnc(-c5c[nH]c6cc(OC(F)(F)F)ccc56)[nH]4)c3)[nH]c2c1"
Response line: 87

Prompt line: Write down inhibition measured for item "Fc1ccc2nc(-c3cccc(-c4cnc(-c5c[nH]c6cc(F)ccc56)[nH]4)c3)[nH]c2c1"
Response line: 90

Prompt line: Hello, please tell me recorded inhibition for this one: "Fc1ccc(-c2cnc(-c3cccc(-c4cnc(-c5c[nH]c6cc(F)ccc56)[nH]4)c3)[nH]2)cc1"
Response line: 86

Prompt line: Return inhibition for the following compound: "O=C(Nc1cccc(-c2cnc(-c3c[nH]c4ccccc34)[nH]2)c1)c1cccnc1"
Response line: 75

Prompt line: Check the records and state inhibition for "O=C(Nc1ccccc1)c1cccc(-c2cnc(-c3c[nH]c4ccccc34)[nH]2)c1"
Response line: 64

Prompt line: # return recorded inhibition for entry "O=C(Nc1cccc(-c2cnc(-c3c[nH]c4cc(F)ccc34)[nH]2)c1)c1cccnc1"
Response line: 82

Prompt line: Give the reported value of inhibition for this record: "O=C(Nc1ccncc1)c1cccc(-c2cnc(-c3c[nH]c4ccccc34)[nH]2)c1"
Response line: 70

Prompt line: Complete the entry with inhibition for "O=C(Nc1cccnc1)c1cccc(-c2cnc(-c3c[nH]c4ccccc34)[nH]2)c1"
Response line: 42

Prompt line: Respond only with inhibition recorded for "Fc1ccc(-c2cnc(-c3cccc(-c4cnc(-c5c[nH]c6cc(OC(F)(F)F)ccc56)[nH]4)c3)[nH]2)cc1"
Response line: 77

Prompt line: Specify measured inhibition for "O=C(Nc1ccc(F)cc1)c1cccc(-c2cnc(-c3c[nH]c4ccccc34)[nH]2)c1" .
Response line: 69
